In this section, each of the compounds is paired with its reported pIC50.
Tested on: 565726-208-R1-J5-PDC complex spheroids, growth inhibition
assay procedure: Anticancer human tumor 565726-208-R1-J5-PDC patient-derived pancreatic adenocarcinoma cell line growth inhibition [RAS]
protocol conditions: curve of first compound; second compound 3.16 µM
Text: RAS pathway inhibitors in Combinations in Complex Spheroids A high-throughput screen of multi-cell type tumor spheroids was designed to identify active combinations of RAS pathway inhibitors and targeted small molecules. Complex spheroids include a stromal component modeled by human endothelial cells (HUVEC) and fibroblasts modeled by human mesenchymal stem cells (MSCs). […] Compounds. […] If the clinical Cmax for an agent had not been determined, the highest concentration tested was 10 microM. […]
pIC50: −log10 of the molar value.

| compound | relation | pIC50 |
| --- | --- | --- |
| CC(=O)OC12COC1CC(O)C1(C)C(=O)C(O)C3=C(C)C(OC(=O)C(O)C(NC(=O)OC(C)(C)C)c4ccccc4)CC(O)(C(OC(=O)c4ccccc4)C21)C3(C)C (stereo not given) + C#Cc1c(F)ccc2cc(O)cc(-c3ncc4c(N5CC6CCC(C5)N6)nc(OCC56CCCN5CC(F)C6)nc4c3F)c12 | > | 7.50 |
| Nc1ccn(C2OC(CO)C(O)C2(F)F)c(=O)n1 (stereo not given) + C#Cc1c(F)ccc2cc(O)cc(-c3ncc4c(N5CC6CCC(C5)N6)nc(OCC56CCCN5CC(F)C6)nc4c3F)c12 | = | 7.43 |
| C=CC(=O)Nc1cc(Nc2nccc(-c3cn(C)c4ccccc34)n2)c(OC)cc1N(C)CCN(C)C + C#Cc1c(F)ccc2cc(O)cc(-c3ncc4c(N5CC6CCC(C5)N6)nc(OCC56CCCN5CC(F)C6)nc4c3F)c12 | < | 6.00 |
| CC(C)n1nc(-c2ccc3oc(N)nc3c2)c2c(N)ncnc21 + C#Cc1c(F)ccc2cc(O)cc(-c3ncc4c(N5CC6CCC(C5)N6)nc(OCC56CCCN5CC(F)C6)nc4c3F)c12 | = | 8.30 |
| CCC(CC)c1cc(NC2CCC(N)C2)n2nccc2n1 (stereo not given) + C#Cc1c(F)ccc2cc(O)cc(-c3ncc4c(N5CC6CCC(C5)N6)nc(OCC56CCCN5CC(F)C6)nc4c3F)c12 | = | 6.18 |
| CC(Nc1ccc2c(c1)OCCn1cc(N3C(=O)OCC3C(F)F)nc1-2)C(N)=O (stereo not given) + C#Cc1c(F)ccc2cc(O)cc(-c3ncc4c(N5CC6CCC(C5)N6)nc(OCC56CCCN5CC(F)C6)nc4c3F)c12 | = | 6.31 |
| C[C@@H](NC(=O)c1ncnc(N)c1Cl)c1ncc(C(=O)Nc2cc(C(F)(F)F)c(Cl)cn2)s1 + C#Cc1c(F)ccc2cc(O)cc(-c3ncc4c(N5CC6CCC(C5)N6)nc(OCC56CCCN5CC(F)C6)nc4c3F)c12 | < | 5.00 |
| O=C(c1ccc(F)c(F)c1Nc1ccc(I)cc1F)N1CC(O)([C@@H]2CCCCN2)C1 + C#Cc1c(F)ccc2cc(O)cc(-c3ncc4c(N5CC6CCC(C5)N6)nc(OCC56CCCN5CC(F)C6)nc4c3F)c12 | = | 7.08 |
| CC(C)NCC(C(=O)N1CCN(c2ncnc3c2C(C)CC3O)CC1)c1ccc(Cl)cc1 (stereo not given) + C#Cc1c(F)ccc2cc(O)cc(-c3ncc4c(N5CC6CCC(C5)N6)nc(OCC56CCCN5CC(F)C6)nc4c3F)c12 | = | 6.33 |
| Cc1nc(N2CCC3(CC2)COC(C)C3N)c(CO)nc1Sc1ccnc(N)c1Cl (stereo not given) + C#Cc1c(F)ccc2cc(O)cc(-c3ncc4c(N5CC6CCC(C5)N6)nc(OCC56CCCN5CC(F)C6)nc4c3F)c12 | = | 6.50 |

====

Test system: 565726-208-R1-J5-PDC complex spheroids, growth inhibition
assay procedure: Anticancer human tumor 565726-208-R1-J5-PDC cell line growth inhibition [RAS];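 also: spheroids exposed to compounds for seven days before readout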;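 as to viability, T/C: 100% = DMSO vehicle control viability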
protocol conditions: second compound 0.03 µM; first compound 3.16 µM; stronger effect = lower value
Listed below: viability, T/C values for each entry.
assay readout: viability, T/C (%)

| compound | target or test system | assay readout | test result |
| --- | --- | --- | --- |
| C[C@@H](NC(=O)c1ncnc(N)c1Cl)c1ncc(C(=O)Nc2cc(C(F)(F)F)c(Cl)cn2)s1 + CCn1c(-c2cc(N3CCN(C)CC3)cnc2C(C)OC)c2c3cc(ccc31)-c1csc(n1)CC(NC(=O)C1CC1C)C(=O)N1CCCC(N1)C(=O)OCC(C)(C)C2 | 565726-208-R1-J5-PDC complex spheroids, growth inhibition | viability, T/C | 40.3 |
| NC1c2ccccc2OC12CCN(c1cnc3c(N4CCCc5ncccc54)n[nH]c3n1)CC2 (centres undefined) + CCn1c(-c2cc(N3CCN(C)CC3)cnc2C(C)OC)c2c3cc(ccc31)-c1csc(n1)CC(NC(=O)C1CC1C)C(=O)N1CCCC(N1)C(=O)OCC(C)(C)C2 | 565726-208-R1-J5-PDC complex spheroids, growth inhibition | viability, T/C | 12.9 |
| CC(Nc1ccc2c(c1)OCCn1cc(N3C(=O)OCC3C(F)F)nc1-2)C(N)=O (centres undefined) + CCn1c(-c2cc(N3CCN(C)CC3)cnc2C(C)OC)c2c3cc(ccc31)-c1csc(n1)CC(NC(=O)C1CC1C)C(=O)N1CCCC(N1)C(=O)OCC(C)(C)C2 | 565726-208-R1-J5-PDC complex spheroids, growth inhibition | viability, T/C | 22.4 |
| Cc1nc(N2CCC3(CC2)COC(C)C3N)c(CO)nc1Sc1ccnc(N)c1Cl (centres undefined) + CCn1c(-c2cccnc2C(C)OC)c2c3cc(ccc31)N1CCOC(CC(NC(=O)C(C(C)C)N(C)C(=O)C3(F)CCN(C(=O)C#CC(C)(C)N(C)C)CC3)C(=O)N3CCCC(N3)C(=O)OCC(C)(C)C2)C1 | 565726-208-R1-J5-PDC complex spheroids, growth inhibition | viability, T/C | 81.5 |

====

Listed here: items and their measured IC50.
Tested on: 565726-208-R1-J5-PDC complex spheroids, growth inhibition
assay procedure: Anticancer human tumor 565726-208-R1-J5-PDC cell line growth inhibition [RAS];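 also: spheroids exposed to compounds for seven days before readout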
protocol conditions: curve of first compound; second compound 0.0949 µM
assay readout: IC50

| molecule | assay readout | test result |
| --- | --- | --- |
| CC(C)NCC(C(=O)N1CCN(c2ncnc3c2C(C)CC3O)CC1)c1ccc(Cl)cc1 (centres undefined) + CCn1c(-c2cccnc2C(C)OC)c2c3cc(ccc31)N1CCOC(CC(NC(=O)C(C(C)C)N(C)C(=O)C3(F)CCN(C(=O)C#CC(C)(C)N(C)C)CC3)C(=O)N3CCCC(N3)C(=O)OCC(C)(C)C2)C1 | IC50 | > 10000 nM |
| O=C(c1ccc(F)c(F)c1Nc1ccc(I)cc1F)N1CC(O)([C@@H]2CCCCN2)C1 + CCn1c(-c2cccnc2C(C)OC)c2c3cc(ccc31)N1CCOC(CC(NC(=O)C(C(C)C)N(C)C(=O)C3(F)CCN(C(=O)C#CC(C)(C)N(C)C)CC3)C(=O)N3CCCC(N3)C(=O)OCC(C)(C)C2)C1 | IC50 | 192 nM |
| O=C(c1ccc(F)c(F)c1Nc1ccc(I)cc1F)N1CC(O)([C@@H]2CCCCN2)C1 + CCn1c(-c2cc(N3CCN(C)CC3)cnc2C(C)OC)c2c3cc(ccc31)-c1csc(n1)CC(NC(=O)C1CC1C)C(=O)N1CCCC(N1)C(=O)OCC(C)(C)C2 | IC50 | < 3.16 nM |
| CC(C)NCC(C(=O)N1CCN(c2ncnc3c2C(C)CC3O)CC1)c1ccc(Cl)cc1 (centres undefined) + CCn1c(-c2cc(N3CCN(C)CC3)cnc2C(C)OC)c2c3cc(ccc31)-c1csc(n1)CC(NC(=O)C1CC1C)C(=O)N1CCCC(N1)C(=O)OCC(C)(C)C2 | IC50 | < 31.6 nM |

====

Reported viability, T/C is given for each of the following molecules.
Test system: 565726-208-R1-J5-PDC complex spheroids, growth inhibition
assay procedure: Anticancer human tumor 565726-208-R1-J5-PDC cell line growth inhibition [RAS];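 also: spheroids exposed to compounds for seven days before readout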;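 as to viability, T/C: 100% = DMSO vehicle control viability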
protocol conditions: second compound 0.316 µM; first compound 0.316 µM; stronger effect = lower value

| molecule | target or test system | viability, T/C (%) |
| --- | --- | --- |
| CC(=O)OC12COC1CC(O)C1(C)C(=O)C(O)C3=C(C)C(OC(=O)C(O)C(NC(=O)OC(C)(C)C)c4ccccc4)CC(O)(C(OC(=O)c4ccccc4)C21)C3(C)C (stereo not given) + C=CC(=O)N1CCN(c2nc(OCC3CCCN3C)nc3c(F)c(-c4nc(N)cc(C)c4C(F)(F)F)c(Cl)cc23)C(C)C1 | 565726-208-R1-J5-PDC complex spheroids, growth inhibition | 22.4 |
| C[C@@H](NC(=O)c1ncnc(N)c1Cl)c1ncc(C(=O)Nc2cc(C(F)(F)F)c(Cl)cn2)s1 + C#Cc1c(F)ccc2cc(O)cc(-c3ncc4c(N5CC6CCC(C5)N6)nc(OCC56CCCN5CC(F)C6)nc4c3F)c12 | 565726-208-R1-J5-PDC complex spheroids, growth inhibition | 94.9 |
| Nc1ccn(C2OC(CO)C(O)C2(F)F)c(=O)n1 (stereo not given) + C#Cc1c(F)ccc2cc(O)cc(-c3ncc4c(N5CC6CCC(C5)N6)nc(OCC56CCCN5CC(F)C6)nc4c3F)c12 | 565726-208-R1-J5-PDC complex spheroids, growth inhibition | 46.1 |
| CC(C)NCC(C(=O)N1CCN(c2ncnc3c2C(C)CC3O)CC1)c1ccc(Cl)cc1 (stereo not given) + C#Cc1c(F)ccc2cc(O)cc(-c3ncc4c(N5CC6CCC(C5)N6)nc(OCC56CCCN5CC(F)C6)nc4c3F)c12 | 565726-208-R1-J5-PDC complex spheroids, growth inhibition | 78.1 |
| C=CC(=O)Nc1cc(Nc2nccc(-c3cn(C)c4ccccc34)n2)c(OC)cc1N(C)CCN(C)C + C=CC(=O)N1CCN(c2nc(OCC3CCCN3C)nc3c(F)c(-c4nc(N)cc(C)c4C(F)(F)F)c(Cl)cc23)C(C)C1 | 565726-208-R1-J5-PDC complex spheroids, growth inhibition | 74.8 |
| CC(C)NCC(C(=O)N1CCN(c2ncnc3c2C(C)CC3O)CC1)c1ccc(Cl)cc1 (stereo not given) + C=CC(=O)N1CCN(c2nc(OCC3CCCN3C)nc3c(F)c(-c4nc(N)cc(C)c4C(F)(F)F)c(Cl)cc23)C(C)C1 | 565726-208-R1-J5-PDC complex spheroids, growth inhibition | 88.5 |
| CCC(CC)c1cc(NC2CCC(N)C2)n2nccc2n1 (stereo not given) + C#Cc1c(F)ccc2cc(O)cc(-c3ncc4c(N5CC6CCC(C5)N6)nc(OCC56CCCN5CC(F)C6)nc4c3F)c12 | 565726-208-R1-J5-PDC complex spheroids, growth inhibition | 103 |
| O=C(c1ccc(F)c(F)c1Nc1ccc(I)cc1F)N1CC(O)([C@@H]2CCCCN2)C1 + C#Cc1c(F)ccc2cc(O)cc(-c3ncc4c(N5CC6CCC(C5)N6)nc(OCC56CCCN5CC(F)C6)nc4c3F)c12 | 565726-208-R1-J5-PDC complex spheroids, growth inhibition | 62.7 |
| CC1(O)CCCC1n1c(=O)c(C(F)F)cc2cnc(NC3CCN(S(C)(=O)=O)CC3)nc21 (stereo not given) + C#Cc1c(F)ccc2cc(O)cc(-c3ncc4c(N5CC6CCC(C5)N6)nc(OCC56CCCN5CC(F)C6)nc4c3F)c12 | 565726-208-R1-J5-PDC complex spheroids, growth inhibition | 75.6 |
| Cc1nc(N2CCC3(CC2)COC(C)C3N)c(CO)nc1Sc1ccnc(N)c1Cl (stereo not given) + C=CC(=O)N1CCN(c2nc(OCC3CCCN3C)nc3c(F)c(-c4nc(N)cc(C)c4C(F)(F)F)c(Cl)cc23)C(C)C1 | 565726-208-R1-J5-PDC complex spheroids, growth inhibition | 78.5 |
